TARGET_OR_SYSTEM: human urokinase (Homo sapiens, UniProt P00749)
Construct: 50 μL of 270 U/mL human urokinase
METHOD_NOTES: Urokinase assay (S-2444 substrate)
Assay type: biochemical
CONDITION_LABEL: [IC50 for Trypsin/IC50 for other enzyme]×100; lower = more trypsin selective
Method: The specificity of the peptide aldehydes (8 through 12) was determined in vitro by measurement of their IC50 against other enzymes involved in hemostasis. A specific concentration of enzyme and its substrate were challenged with varying concentrations of inhibitor. […] Enzyme activity was determined using as substrate S-2444 [L-pyroglutamyl-L-glycyl-L-arginine-p-nitroanilide hydrochloride], purchased from Kabi Diagnostica. […]
Non-standard residues stand in square brackets, D forms with d. Residues, ends and D or L forms follow the SMILES beside them. *: point of attachment. Boc = CC(C)(C)OC(=O)*
READOUT_TYPE: Calculated % Selectivity UK (%)
Express it in %; write the number only.

Completed entries (count: 2):
CC(C)(C)OC(=O)N[C@H](CC(=O)O)C(=O)N1CCC[C@H]1C(=O)N[C@H](C=O)CCCNC(=N)N [Compound 12] (Boc-[dD]-Pro-Arg-aldehyde) :: 0.5
CC(C)(C)OC(=O)N[C@@H](CC(=O)O)C(=O)N1CCC[C@H]1C(=O)N[C@H](C=O)CCCNC(=N)N [Compound 9] (Boc-Asp-Pro-Arg-aldehyde) :: 0.06

Attention now shifts to the item below.
Which value of Calculated % Selectivity UK has been reported for CC(C)(C)OC(=O)N[C@@H](CCC(=O)O)C(=O)N1CCC[C@H]1C(=O)N[C@H](C=O)CCCNC(=N)N [Compound 8] (Boc-Glu-Pro-Arg-aldehyde) in the records?
0.07
